Kindly supply the reported pIC50 values for the records listed here.
Molecular target: UniProtKB P68400
Sequence (P68400 whole entry): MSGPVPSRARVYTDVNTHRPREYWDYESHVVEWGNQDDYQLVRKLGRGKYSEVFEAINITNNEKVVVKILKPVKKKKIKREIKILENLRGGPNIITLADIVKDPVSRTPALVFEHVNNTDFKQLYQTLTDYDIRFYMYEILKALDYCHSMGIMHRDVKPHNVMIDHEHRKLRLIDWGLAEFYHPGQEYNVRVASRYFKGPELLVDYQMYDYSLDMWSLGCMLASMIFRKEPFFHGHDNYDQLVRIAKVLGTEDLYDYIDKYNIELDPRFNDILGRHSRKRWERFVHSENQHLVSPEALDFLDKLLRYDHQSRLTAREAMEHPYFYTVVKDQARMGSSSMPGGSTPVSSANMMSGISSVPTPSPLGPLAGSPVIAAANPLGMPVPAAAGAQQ
Sequence (P67870 whole entry partner): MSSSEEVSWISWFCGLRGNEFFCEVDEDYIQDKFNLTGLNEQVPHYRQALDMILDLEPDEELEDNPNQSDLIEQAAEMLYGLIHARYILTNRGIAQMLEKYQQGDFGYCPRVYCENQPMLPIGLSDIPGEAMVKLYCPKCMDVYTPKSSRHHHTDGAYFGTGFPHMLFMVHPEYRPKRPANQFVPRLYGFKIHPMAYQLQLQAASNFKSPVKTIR
Experiment: CK2 inhibition, biochemical chemiluminescence holoenzyme assay (Kinase Glo, IC50 determination)
Conditions: Table 1 activity class; symbol given only if active; read-out: CK2 IC50 (Activity C)
pIC50: −log10 of the molar value.

Reported pIC50 for O=C(Nc1ccc(-c2nc3c(oc4ccc(Br)cc43)c(=O)[nH]2)c(Cl)c1)c1ccc(Br)cn1 [Compound 336] was > 5.00

Reported pIC50 for O=c1[nH]c(-c2cnc3cc(C4CCNCC4)nn3c2)nc2c1oc1ccc(Br)cc12 [Compound 377] was > 5.00

Reported pIC50 for O=c1[nH]c(CN2CC[C@H](O)C2)nc2c1oc1ccc(Cl)cc12 [Compound 429] was > 5.00

Reported pIC50 for O=c1[nH]c(CN2CCCC(CO)C2)nc2c1oc1ccc(Br)cc12 (centres unmarked) [Compound 306] was > 5.00

Reported pIC50 for O=c1[nH]c(CN2CC[C@H](O)C2)nc2c1oc1ccc(C#CCO)cc12 [Compound 454] was > 5.00

Reported pIC50 for O=c1[nH]c(CN2CC[C@H](O)C2)nc2c1oc1ccc(NCc3ccccc3)cc12 [Compound 443] was > 5.00

Reported pIC50 for CCc1nccn1Cc1nc2c(oc3ccc(Br)cc32)c(=O)[nH]1 [Compound 149] was > 5.00

Reported pIC50 for COc1ccc(CNCc2nc3c(oc4ccc(Br)cc43)c(=O)[nH]2)cc1 [Compound 261] was > 5.00

----------
Molecular target: CDC7 (Homo sapiens, UniProt O00311)
Sequence (O00311 whole entry): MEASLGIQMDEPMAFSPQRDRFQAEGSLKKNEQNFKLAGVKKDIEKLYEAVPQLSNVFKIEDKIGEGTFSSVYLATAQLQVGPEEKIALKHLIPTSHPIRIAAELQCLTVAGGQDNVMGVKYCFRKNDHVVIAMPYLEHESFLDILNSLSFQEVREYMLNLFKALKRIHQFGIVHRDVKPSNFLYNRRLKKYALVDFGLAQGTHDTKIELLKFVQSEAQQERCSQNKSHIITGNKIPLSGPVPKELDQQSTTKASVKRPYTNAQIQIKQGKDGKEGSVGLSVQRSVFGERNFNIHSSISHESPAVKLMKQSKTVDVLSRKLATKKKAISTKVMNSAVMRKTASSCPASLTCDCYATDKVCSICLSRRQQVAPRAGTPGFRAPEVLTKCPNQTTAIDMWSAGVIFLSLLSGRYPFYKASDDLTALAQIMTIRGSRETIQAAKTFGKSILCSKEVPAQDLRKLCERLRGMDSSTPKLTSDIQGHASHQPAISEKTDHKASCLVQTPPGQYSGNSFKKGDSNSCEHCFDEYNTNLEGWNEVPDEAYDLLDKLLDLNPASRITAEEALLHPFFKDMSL
Sequence (Q9UBU7 whole entry partner): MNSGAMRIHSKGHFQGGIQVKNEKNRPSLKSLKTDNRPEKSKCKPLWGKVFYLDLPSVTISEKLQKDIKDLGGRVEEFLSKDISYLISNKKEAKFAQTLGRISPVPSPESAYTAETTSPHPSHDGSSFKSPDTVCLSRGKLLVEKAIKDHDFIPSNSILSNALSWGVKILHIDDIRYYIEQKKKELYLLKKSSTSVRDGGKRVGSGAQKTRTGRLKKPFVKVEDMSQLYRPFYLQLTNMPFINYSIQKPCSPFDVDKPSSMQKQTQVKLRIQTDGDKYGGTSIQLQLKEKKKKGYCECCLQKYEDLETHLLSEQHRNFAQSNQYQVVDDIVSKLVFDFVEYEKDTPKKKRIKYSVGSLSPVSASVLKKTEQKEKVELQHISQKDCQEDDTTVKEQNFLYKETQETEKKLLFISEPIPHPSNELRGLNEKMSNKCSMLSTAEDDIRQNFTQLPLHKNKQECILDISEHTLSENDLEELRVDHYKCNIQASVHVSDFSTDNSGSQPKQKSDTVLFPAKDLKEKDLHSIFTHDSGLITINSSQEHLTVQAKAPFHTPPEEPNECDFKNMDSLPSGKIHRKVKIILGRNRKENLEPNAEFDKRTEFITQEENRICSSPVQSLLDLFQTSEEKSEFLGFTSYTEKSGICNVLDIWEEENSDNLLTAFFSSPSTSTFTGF
Experiment: CDC7 inhibition, biochemical chemiluminescence assay (Kinase Glo, IC50 determination)
Conditions: compounds in Table 1; read-out: CDC7 IC50 value
Counter-ions that a name gives are not always drawn.
Value type: IC50

Reported IC50 for "O=c1[nH]c(CN2CCCC2)nc2c1oc1ccc(Cl)cc12" was < 100 nM

Reported IC50 for "O=c1[nH]c([C@@H]2C[C@H](F)CN2)nc2c1oc1ccc(Br)cc12" was < 100 nM

Reported IC50 for O=c1[nH]c(C2CCNC2)nc2c1oc1ccc(Br)cc12 (stereo not drawn) was < 100 nM

Reported IC50 for CC(c1nc2c(oc3ccc(Br)cc32)c(=O)[nH]1)N1CC[C@H](O)C1 (stereo partly drawn) was < 100 nM

Reported IC50 for O=c1[nH]c(CN2CCCC(F)C2)nc2c1oc1ccc(Br)cc12 (stereo not drawn) was < 100 nM

Reported IC50 for O=c1[nH]c(CNCC(O)CO)nc2c1oc1ccc(Br)cc12 (stereo not drawn) was < 100 nM

Reported IC50 for "O=c1[nH]c(CN2CCC[C@H](O)C2)nc2c1oc1ccc(Br)cc12" was < 100 nM

Reported IC50 for "O=c1[nH]c([C@H]2CCCN2)nc2c1oc1ccc(Br)cc12" was < 100 nM

Reported IC50 for CN1CCC[C@H]1c1nc2c(oc3ccc(Br)cc32)c(=O)[nH]1 [Compound 527, hydrochloride] was < 100 nM

Reported IC50 for "O=c1[nH]c(CN2CC[C@@H](F)C2)nc2c1oc1ccc(Br)cc12" was < 100 nM

Reported IC50 for "COCCNCc1nc2c(oc3ccc(Br)cc32)c(=O)[nH]1" was < 100 nM

Reported IC50 for NC(=O)C1CCN(Cc2nc3c(oc4ccc(Br)cc43)c(=O)[nH]2)C1 (stereo not drawn) was < 100 nM

Reported IC50 for "O=c1[nH]c(Nc2cccnc2)nc2c1oc1ccc(Br)cc12" was < 100 nM

Reported IC50 for "CC(=O)N[C@@H]1CCN(Cc2nc3c(oc4ccc(Br)cc43)c(=O)[nH]2)C1" was < 100 nM

Reported IC50 for CC1(O)CCN(Cc2nc3c(oc4ccc(Br)cc43)c(=O)[nH]2)C1 (stereo not drawn) was < 100 nM

Reported IC50 for "CSc1ccc2oc3c(=O)[nH]c(CN4CC[C@H](O)C4)nc3c2c1" was < 100 nM

Reported IC50 for CN1CCCC(c2nc3c(oc4ccc(Br)cc43)c(=O)[nH]2)C1 (stereo not drawn) [Compound 184, dihydrochloride] was < 100 nM

Reported IC50 for O=c1[nH]c(C2CCCCN2)nc2c1oc1ccc(Br)cc12 (stereo not drawn) [Compound 534, hydrochloride] was < 100 nM
